Target: Coagulation factor X (Homo sapiens, UniProt P00742)
Sequence (P00742 41-179 limits assumed): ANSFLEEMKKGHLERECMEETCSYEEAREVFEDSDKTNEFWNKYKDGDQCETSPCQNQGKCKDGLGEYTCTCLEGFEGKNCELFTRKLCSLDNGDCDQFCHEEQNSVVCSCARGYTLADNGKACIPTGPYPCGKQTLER
Sequence (P00742 235-488 limits assumed): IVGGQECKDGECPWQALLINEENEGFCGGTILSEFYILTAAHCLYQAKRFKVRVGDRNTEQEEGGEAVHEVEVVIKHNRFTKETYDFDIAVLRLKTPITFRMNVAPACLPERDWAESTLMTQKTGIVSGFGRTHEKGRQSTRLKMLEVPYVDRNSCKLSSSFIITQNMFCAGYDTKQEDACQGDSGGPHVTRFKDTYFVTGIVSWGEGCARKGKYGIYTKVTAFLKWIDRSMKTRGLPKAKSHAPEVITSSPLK
assayEndpoint: IC50 (nM)
Give a bare numeral; the unit nM is implied.

[[record]]
cpdsmiles = "Cc1cc(C(=O)Nc2ccc(-c3ccccc3S(C)(=O)=O)cc2)n(-c2cccc(C(=N)N)c2)n1"
testsystem = "Coagulation factor X (Homo sapiens, UniProt P00742)"
assayendpoint = "IC50"
unitstext = "nM"
assayresult = 0.008


Moving on to another molecule below.
Query: // IC50 lookup, key: `Cc1cc(C(=O)Nc2ccc(-c3ccccc3C(F)(F)F)cc2)n(-c2cccc(C(=N)N)c2)n1`
Response: 0.04

###

Reported values of pIC50 for individual entries
Target: Adenosine receptor A2b (Homo sapiens)
Sequence (P29275 whole entry): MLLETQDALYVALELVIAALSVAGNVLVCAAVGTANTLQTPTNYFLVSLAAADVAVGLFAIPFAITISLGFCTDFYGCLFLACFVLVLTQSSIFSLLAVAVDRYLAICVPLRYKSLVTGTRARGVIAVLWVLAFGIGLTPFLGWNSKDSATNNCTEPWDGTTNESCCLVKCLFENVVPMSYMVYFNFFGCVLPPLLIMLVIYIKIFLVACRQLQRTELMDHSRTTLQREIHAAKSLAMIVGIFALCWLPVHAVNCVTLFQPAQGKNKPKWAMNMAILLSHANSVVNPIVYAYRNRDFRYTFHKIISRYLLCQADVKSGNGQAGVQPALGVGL
# pIC50 is unitless: minus log10 of the molar concentration; print number only

[[record]]
cpdsmiles = "COc1cc(N)c(Cl)cc1C(=O)OCCN1CCN(c2ccccc2Cl)CC1"
assayresult = 5.23

[[record]]
cpdsmiles = "COc1cc(N)c(Cl)cc1C(=O)OCCN1CCN(c2cccc(Cl)c2)CC1"
assayresult = 5.68

[[record]]
cpdsmiles = "COc1ccc(N2CCN(CCOC(=O)c3cc(Cl)c(N)cc3OC)CC2)cc1"
assayresult = 6.60


Query: // pIC50 lookup, key: `COc1cc(N)c(Cl)cc1C(=O)OCCN1CCN(c2ccccc2OC)CC1`
Response: 6.90

Query: Continue with `COc1cc(N)c(Cl)cc1C(=O)OCCN1CCN(c2ccc(Cl)cc2)CC1`
Response: 5.44

###

Reported values of IC50 for individual entries
Biological target: Transient receptor potential cation channel subfamily A member 1 (Homo sapiens, UniProt O75762)
Sequence (O75762 whole entry): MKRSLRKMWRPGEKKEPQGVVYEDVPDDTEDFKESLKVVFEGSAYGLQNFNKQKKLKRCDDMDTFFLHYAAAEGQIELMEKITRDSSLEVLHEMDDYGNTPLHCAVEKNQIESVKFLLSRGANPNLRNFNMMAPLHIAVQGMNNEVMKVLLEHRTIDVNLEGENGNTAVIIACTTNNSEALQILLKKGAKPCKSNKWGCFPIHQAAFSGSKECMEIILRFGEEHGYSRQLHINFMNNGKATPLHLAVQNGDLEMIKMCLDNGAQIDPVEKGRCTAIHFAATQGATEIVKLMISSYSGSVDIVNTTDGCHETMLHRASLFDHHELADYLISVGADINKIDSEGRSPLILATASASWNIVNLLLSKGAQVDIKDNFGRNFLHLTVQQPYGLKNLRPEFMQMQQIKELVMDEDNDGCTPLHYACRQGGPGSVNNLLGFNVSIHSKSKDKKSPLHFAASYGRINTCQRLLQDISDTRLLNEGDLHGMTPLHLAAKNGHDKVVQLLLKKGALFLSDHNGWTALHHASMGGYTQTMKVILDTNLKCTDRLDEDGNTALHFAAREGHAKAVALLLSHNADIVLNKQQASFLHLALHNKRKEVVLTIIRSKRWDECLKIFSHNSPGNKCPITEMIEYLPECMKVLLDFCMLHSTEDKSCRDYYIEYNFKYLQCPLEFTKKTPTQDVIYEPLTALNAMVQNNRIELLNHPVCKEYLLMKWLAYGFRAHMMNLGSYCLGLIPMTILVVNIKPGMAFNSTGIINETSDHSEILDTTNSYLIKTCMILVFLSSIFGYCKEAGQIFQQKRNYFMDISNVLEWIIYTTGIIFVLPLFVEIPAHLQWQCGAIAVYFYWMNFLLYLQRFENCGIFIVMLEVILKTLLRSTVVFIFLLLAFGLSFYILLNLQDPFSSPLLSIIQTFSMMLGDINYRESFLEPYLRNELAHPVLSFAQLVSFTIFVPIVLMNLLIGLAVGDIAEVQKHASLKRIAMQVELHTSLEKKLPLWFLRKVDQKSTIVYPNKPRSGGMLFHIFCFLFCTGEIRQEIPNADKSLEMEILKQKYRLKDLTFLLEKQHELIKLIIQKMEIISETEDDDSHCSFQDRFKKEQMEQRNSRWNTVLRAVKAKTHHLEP
Form field: result (number plus unit)

In the examples that follow, each entry is paired with its recorded IC50.
[[record]]
cpdsmiles = "Cc1c(=O)n(Cc2ccccc2)c(=O)n2cc(C(=O)NCc3ccncc3)sc12"
assayendpoint = "IC50"
assayresult = "1.17 µM"

[[record]]
cpdsmiles = "Cc1c(=O)n(Cc2ccccc2)c(=O)n2cc(C(=O)NCc3ccccc3)sc12"
assayendpoint = "IC50"
assayresult = "1.88 µM"

[[record]]
cpdsmiles = "Cc1c(=O)n(Cc2ccccc2)c(=O)n2cc(C(=O)N3CC[C@H](Oc4ccccc4C(F)(F)F)C3)sc12"
assayendpoint = "IC50"
assayresult = "0.15 µM"


Query: // IC50 lookup, key: `Cc1c(=O)n(Cc2ccccc2)c(=O)n2cc(C(=O)NCc3ccc4[nH]ccc4c3)sc12`
Response: 0.68 µM

Query: Continue with `Cc1c(=O)n(Cc2ccccc2)c(=O)n2cc(C(=O)N3CCC(Oc4cccc(Cl)c4)CC3)sc12`
Response: 0.2 µM

###

What follows is a collection of IC50 values obtained with 5-hydroxytryptamine receptor 4 (Homo sapiens, UniProt Q13639).
Sequence (Q13639 whole entry): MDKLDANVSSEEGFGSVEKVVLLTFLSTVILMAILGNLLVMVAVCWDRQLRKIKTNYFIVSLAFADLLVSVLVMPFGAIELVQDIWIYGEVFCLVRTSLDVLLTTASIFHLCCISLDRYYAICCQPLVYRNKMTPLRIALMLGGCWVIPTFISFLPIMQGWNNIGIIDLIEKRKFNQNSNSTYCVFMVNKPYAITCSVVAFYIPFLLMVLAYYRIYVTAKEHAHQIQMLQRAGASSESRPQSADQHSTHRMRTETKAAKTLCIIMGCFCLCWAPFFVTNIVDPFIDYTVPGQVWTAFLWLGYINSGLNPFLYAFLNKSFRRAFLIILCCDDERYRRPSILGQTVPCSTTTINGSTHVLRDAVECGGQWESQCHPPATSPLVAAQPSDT
Give a bare numeral; the unit nM is implied.

[[record]]
cpdsmiles = "COc1cc(N)c(Cl)cc1C(=O)OCCN1CCN(c2cccc(Cl)c2)CC1"
assayendpoint = "IC50"
assayresult = 162


Query: // IC50 lookup, key: `COc1cc(N)c(Cl)cc1C(=O)OCCN1CCN(c2ccccc2OC)CC1`
Response: 64
